test_system: CD133 on PLC/PRF/5 cells (human) (UniProt O43490)
Sequence: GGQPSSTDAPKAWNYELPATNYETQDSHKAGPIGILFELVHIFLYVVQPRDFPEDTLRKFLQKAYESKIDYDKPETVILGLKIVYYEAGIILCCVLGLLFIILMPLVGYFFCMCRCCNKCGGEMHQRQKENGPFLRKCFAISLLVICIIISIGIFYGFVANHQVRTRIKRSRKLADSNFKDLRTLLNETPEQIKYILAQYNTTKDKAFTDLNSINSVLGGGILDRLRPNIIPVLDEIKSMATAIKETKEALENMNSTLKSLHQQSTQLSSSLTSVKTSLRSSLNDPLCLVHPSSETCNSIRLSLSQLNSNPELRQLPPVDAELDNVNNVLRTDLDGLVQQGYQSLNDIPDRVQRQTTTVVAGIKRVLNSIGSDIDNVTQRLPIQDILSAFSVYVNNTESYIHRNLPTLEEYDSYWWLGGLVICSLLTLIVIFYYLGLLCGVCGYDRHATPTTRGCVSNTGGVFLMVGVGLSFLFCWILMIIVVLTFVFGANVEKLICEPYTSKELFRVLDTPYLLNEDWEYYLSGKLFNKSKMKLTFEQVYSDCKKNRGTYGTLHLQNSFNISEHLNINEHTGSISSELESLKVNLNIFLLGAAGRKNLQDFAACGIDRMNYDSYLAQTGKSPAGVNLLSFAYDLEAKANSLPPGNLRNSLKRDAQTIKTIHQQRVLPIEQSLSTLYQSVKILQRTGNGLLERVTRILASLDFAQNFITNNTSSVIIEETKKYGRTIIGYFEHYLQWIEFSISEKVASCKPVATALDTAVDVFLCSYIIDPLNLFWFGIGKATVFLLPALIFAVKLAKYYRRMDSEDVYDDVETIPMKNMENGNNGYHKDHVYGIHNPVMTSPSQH
test_details: flow cytometry (cell binding)
measurement_setup: PLC/PRF/5 cells, 37 C, 2'-O-methyl instead of 2'-fluoro on pyrimidines (C and U), Aptamer folded in PBS with 2.5 mM Mg2+ (85 C 5 min, RT, 37 C 15 min), binding to cells in PBS-based blocking buffer, 30 min, CD133-negative HEK293T cells …
observed_property: Kd

Prompt: Reported Kd for CGCGCGCCGCUCCUACAUAGCGGCGCGCG [negative control CD133 aptamer (2'-OMe)] : what is it?
Response: > 1000 nM

Reference for the values: paper PMC9687680
